# TESTED TARGET: human PAH with the R408W mutation (Homo sapiens, UniProt P00439, R408W)
# Construct: expressed in transfected cells
# Sequence (P00439 whole entry R408W): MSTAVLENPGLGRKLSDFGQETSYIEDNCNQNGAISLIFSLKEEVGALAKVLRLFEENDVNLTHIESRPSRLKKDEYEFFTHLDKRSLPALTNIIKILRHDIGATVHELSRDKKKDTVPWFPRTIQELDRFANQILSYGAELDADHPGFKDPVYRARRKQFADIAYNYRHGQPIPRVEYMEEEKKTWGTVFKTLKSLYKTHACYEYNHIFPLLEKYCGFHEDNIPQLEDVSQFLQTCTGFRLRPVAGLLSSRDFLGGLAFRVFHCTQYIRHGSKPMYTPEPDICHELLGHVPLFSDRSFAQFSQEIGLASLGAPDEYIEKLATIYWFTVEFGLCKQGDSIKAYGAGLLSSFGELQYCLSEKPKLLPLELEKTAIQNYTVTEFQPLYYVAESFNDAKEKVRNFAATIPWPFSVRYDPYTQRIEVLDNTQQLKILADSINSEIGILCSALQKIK
# ASSAY NAME: Cell Based Phenylalanine Flux Assay
# EXPERIMENTAL SETUP: A375 cells expressing human R408W PAH; 24 hrs compound incubation; 13C-Tyrosine by LC-MS; average where tested multiple times; read-out: AC50
Here the recorded AC50 is given for each entry.

COMPOUND	AC50
Cn1nccc1-c1nnc(C(=O)N2CCc3[nH]cnc3[C@H]2c2cc3ccccc3cn2)o1 [Example 447]	< 500 nM
CC(C)(O)c1ncc(C(=O)N2CCc3[nH]cnc3[C@H]2c2cc3ccccc3cn2)s1 [Example 328]	500 to 1000 nM

Next:
Q. Item CC(C)(C)c1ncc(C(=O)N2CCc3[nH]cnc3[C@H]2c2cn3ccccc3n2)o1 [Example 250] has what recorded AC50?
A. 500 to 1000 nM

* * *

# TESTED TARGET: human PAH with the R408W mutation (Homo sapiens, UniProt P00439, R408W)
# Construct: expressed in transfected cells
# ASSAY NAME: Cell Based Phenylalanine Flux Assay
# EXPERIMENTAL SETUP: A375 R408W cells, 24 hrs with compound, then 20 μM sepiapterin and 800 μM 13C9,15N-Phenylalanine for 4 hours; 13C-Tyrosine by LC-MS; average where tested multiple times; read-out: AC50
Here the recorded AC50 is given for each entry.

The following compounds have reported results that may help.
COMPOUND	TESTED TARGET	AC50
Cn1cc(-c2nc(C3CC3)c(C(=O)N3CCCc4[nH]cnc4C3c3cc4ccccc4cn3)o2)cn1 (centres unmarked)	human PAH with the R408W mutation (Homo sapiens, UniProt P00439, R408W)	1 to 5 µM
O=C(c1nnc(-c2ccccn2)o1)N1CCc2[nH]cnc2C1c1cc2ccccc2nn1 (centres unmarked)	human PAH with the R408W mutation (Homo sapiens, UniProt P00439, R408W)	1 to 5 µM
O=C(c1cnc(C2CC2)s1)N1CCc2[nH]cnc2C1c1cn2ccccc2n1 (centres unmarked)	human PAH with the R408W mutation (Homo sapiens, UniProt P00439, R408W)	1 to 5 µM
O=C(c1cn[nH]c1)N1CCc2[nH]cnc2C1c1ccc2ccccc2n1 (centres unmarked)	human PAH with the R408W mutation (Homo sapiens, UniProt P00439, R408W)	1 to 5 µM
COCCc1ccc2c(C(=O)N3CCc4[nH]cnc4C3c3ccc4ccccc4n3)cnn2c1 (centres unmarked)	human PAH with the R408W mutation (Homo sapiens, UniProt P00439, R408W)	1 to 5 µM
O=C(C1CC1(F)F)N1CCc2[nH]cnc2C1c1cn2ccccc2n1 (centres unmarked)	human PAH with the R408W mutation (Homo sapiens, UniProt P00439, R408W)	1 to 5 µM
O=C(Cn1cncn1)N1CCc2[nH]cnc2C1c1cn2ccccc2n1 (centres unmarked)	human PAH with the R408W mutation (Homo sapiens, UniProt P00439, R408W)	> 5 µM
Cn1nc(COC(F)(F)F)cc1C(=O)N1CCc2[nH]cnc2C1c1ccc2ccccc2n1 (centres unmarked)	human PAH with the R408W mutation (Homo sapiens, UniProt P00439, R408W)	> 5 µM
CC1CN(c2nnc(-c3ccccn3)o2)C(c2cc3ccccc3cn2)c2nc[nH]c21 (centres unmarked)	human PAH with the R408W mutation (Homo sapiens, UniProt P00439, R408W)	1 to 5 µM
CC(C)(O)c1cc(C(=O)N2CCc3[nH]cnc3C2c2ccc3ccccc3n2)on1 (centres unmarked)	human PAH with the R408W mutation (Homo sapiens, UniProt P00439, R408W)	> 5 µM

Q. Item Cc1nc(N2CCOCC2)oc1C(=O)N1CCc2[nH]cnc2C1c1ccc2ccccc2n1 (centres unmarked) has what recorded AC50?
A. > 5 µM

Q. Item O=C(c1cnc(C(F)(F)F)s1)N1CCc2[nH]cnc2C1c1cn2ccccc2n1 (centres unmarked) has what recorded AC50?
A. > 5 µM

Q. Item CC(C)(O)c1ncc(C(=O)N2CCc3[nH]cnc3C2c2ncc3ccccc3n2)o1 (centres unmarked) has what recorded AC50?
A. > 5 µM

Q. Item CC1CN(C(=O)c2nnc(-c3cnn(C)c3)o2)C(c2cc3ccccc3cn2)c2nc[nH]c21 (centres unmarked) has what recorded AC50?
A. 1 to 5 µM

Q. Item CC1CN(C(=O)c2ocnc2C(F)(F)F)C(c2cc3ccccc3cn2)c2nc[nH]c21 (centres unmarked) has what recorded AC50?
A. 1 to 5 µM

Q. Item CN(C)Cc1nnc(C(=O)N2CCc3[nH]cnc3C2c2ccc3ccccc3n2)o1 (centres unmarked) has what recorded AC50?
A. 1 to 5 µM

Q. Item Cc1nnc(CCC(=O)N2CCc3[nH]cnc3C2c2cn3ccccc3n2)o1 (centres unmarked) has what recorded AC50?
A. > 5 µM

Q. Item CC(C)(O)c1ccc2c(C(=O)N3CCc4[nH]cnc4C3c3ccc4ccccc4n3)cnn2c1 (centres unmarked) has what recorded AC50?
A. > 5 µM

Q. Item Cc1nnc(C(=O)N2CC(C)c3[nH]cnc3C2c2cc3ccccc3cn2)o1 (centres unmarked) has what recorded AC50?
A. 1 to 5 µM

Q. Item O=C(c1nnc(-c2ncccn2)o1)N1CCc2[nH]cnc2C1c1ncc2ccccc2n1 (centres unmarked) has what recorded AC50?
A. > 5 µM

Q. Item CC1CN(C(=O)c2nnc(N3CCN(C)CC3)o2)C(c2cc3ccccc3cn2)c2nc[nH]c21 (centres unmarked) has what recorded AC50?
A. 1 to 5 µM

Q. Item Cc1nc(NC2CC2)oc1C(=O)N1CCc2[nH]cnc2C1c1ccc2ccccc2n1 (centres unmarked) has what recorded AC50?
A. 1 to 5 µM

Q. Item Cc1nnc(CCC(=O)N2CCc3[nH]cnc3C2c2cn3ccccc3n2)s1 (centres unmarked) has what recorded AC50?
A. > 5 µM

Q. Item CC1CN(C(=O)c2nnc(NC3CC3)o2)C(c2cc3ccccc3cn2)c2nc[nH]c21 (single isomer, unassigned) has what recorded AC50?
A. > 5 µM

Q. Item Cn1cc(-c2ncc(C(=O)N3CCc4[nH]cnc4C3c3ncc4ccccc4n3)o2)cn1 (centres unmarked) has what recorded AC50?
A. 1 to 5 µM

Q. Item Cc1nc(N2CCC(F)CC2)oc1C(=O)N1CCc2[nH]cnc2C1c1ccc2ccccc2n1 (centres unmarked) has what recorded AC50?
A. 1 to 5 µM

Q. Item Cc1nc(-c2ccccn2)oc1C(=O)N1CCc2[nH]cnc2C1c1cn2ccccc2n1 (centres unmarked) has what recorded AC50?
A. 1 to 5 µM

Q. Item Cc1nnc(C(=O)N2CCc3[nH]cnc3C2c2ncc3ccccc3n2)o1 (centres unmarked) has what recorded AC50?
A. 1 to 5 µM

Q. Item O=C(c1cnn(-c2ccccn2)c1)N1CCc2[nH]cnc2C1c1ccc2ccccc2n1 (centres unmarked) has what recorded AC50?
A. 1 to 5 µM

Q. Item CC1CN(C(=O)c2oc(-c3ccccn3)nc2C(F)(F)F)C(c2cc3ccccc3cn2)c2nc[nH]c21 (centres unmarked) has what recorded AC50?
A. 0.5 to 1 µM

Q. Item CC1CN(C(=O)c2nnc(NC3CC3)o2)C(c2cc3ccccc3cn2)c2nc[nH]c21 (centres unmarked) has what recorded AC50?
A. 1 to 5 µM

Q. Item O=C(c1nnc(N2CCOCC2)o1)N1CCc2[nH]cnc2C1c1cn2ccccc2n1 (centres unmarked) has what recorded AC50?
A. > 5 µM

Q. Item Cc1nc(C(C)(C)C)oc1C(=O)N1CCc2[nH]cnc2C1c1cc2ccccc2cn1 (centres unmarked) has what recorded AC50?
A. 1 to 5 µM

Q. Item COCCNc1nnc(C(=O)N2CCc3[nH]cnc3C2c2ccc3ccccc3n2)o1 (centres unmarked) has what recorded AC50?
A. > 5 µM

Origin of values: patent US20250262201A1
